Experimental System: alanyl aminopeptidases (APN) (Homo sapiens)
Sequence (P15144 whole entry, species assumed): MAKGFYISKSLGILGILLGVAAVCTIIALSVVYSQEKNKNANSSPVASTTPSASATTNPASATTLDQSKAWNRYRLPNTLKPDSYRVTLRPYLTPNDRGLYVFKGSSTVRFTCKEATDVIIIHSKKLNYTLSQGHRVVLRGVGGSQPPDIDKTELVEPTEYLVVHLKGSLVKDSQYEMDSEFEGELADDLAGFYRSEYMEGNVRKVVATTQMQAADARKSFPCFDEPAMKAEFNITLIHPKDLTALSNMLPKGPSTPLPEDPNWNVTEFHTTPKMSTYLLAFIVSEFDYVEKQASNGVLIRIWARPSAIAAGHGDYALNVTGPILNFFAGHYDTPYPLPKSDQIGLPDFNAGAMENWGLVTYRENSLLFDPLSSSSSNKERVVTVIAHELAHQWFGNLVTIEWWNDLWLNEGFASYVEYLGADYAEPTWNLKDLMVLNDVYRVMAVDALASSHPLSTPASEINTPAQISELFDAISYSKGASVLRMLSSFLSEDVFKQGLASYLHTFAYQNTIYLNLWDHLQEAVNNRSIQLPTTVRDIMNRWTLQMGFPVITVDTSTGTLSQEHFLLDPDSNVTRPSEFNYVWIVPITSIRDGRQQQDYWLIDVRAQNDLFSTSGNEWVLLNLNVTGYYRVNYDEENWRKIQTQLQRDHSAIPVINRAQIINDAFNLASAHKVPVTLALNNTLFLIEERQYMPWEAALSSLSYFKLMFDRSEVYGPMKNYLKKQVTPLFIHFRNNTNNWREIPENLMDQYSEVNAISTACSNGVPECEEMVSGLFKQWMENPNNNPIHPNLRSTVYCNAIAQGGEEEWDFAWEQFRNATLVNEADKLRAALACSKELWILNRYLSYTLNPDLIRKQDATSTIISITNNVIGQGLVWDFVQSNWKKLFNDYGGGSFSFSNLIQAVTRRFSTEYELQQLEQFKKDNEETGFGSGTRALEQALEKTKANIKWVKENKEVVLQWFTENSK
Test Description: Inhibition of alanyl aminopeptidase enzymatic activity, fluorogenic substrate (Ala)2-rhodamine 110
Assay type: biochemical
Measurement Setup: Table 3, unstarred values; read-out: IC50APN
Readout Kind: pIC50
Answers are plain numbers, as −log10 of the molar value.

{"Compound": "O=C(Nc1ccc(N=Nc2ccccc2)cc1)c1ccc(S(=O)(=O)N2CCCC2)cc1 [A3.122]", "Measured": 4.67}
{"Compound": "COCc1c(C(=O)N/N=C/c2ccc(C)o2)nnn1-c1nonc1N [A3.053]", "Measured": 4.90}
{"Compound": "O=C(N/C(=C\\c1ccco1)C(=O)N1CCC(O)CC1)c1ccccc1 [A3.115]", "Measured": 4.68}
{"Compound": "O=C(CCCOc1ccc(Cl)cc1Cl)N/N=C/c1ccco1 [A3.158]", "Measured": 4.58}
{"Compound": "Cc1cc(I)ccc1CC(=O)CCC(=O)N/N=C/c1ccco1 [A3.095]", "Measured": 5.02}

// batch mode: one pIC50 value per listed entry
1. O=C(N/N=C/c1ccco1)c1ccc(=O)[nH]n1 [A3.130]
2. CCc1ccc(-c2cc(C(=O)N/N=C/c3c(C)nn(-c4ccccc4)c3C)[nH]n2)cc1 [A3.061]
3. O=C1C(Cc2ccc(O)cc2)NC(=S)N1C1CCCCC1 (stereo not drawn) [A3.118]
4. COc1ccc(OC)c(NC(=O)/C=C/c2ccc(C)o2)c1 [A3.277]
5. Cc1ccc(/C=N/NC(=O)c2cc(O)cc(O)c2)o1 [A3.160]

Given back:
1. 4.65
2. 4.87
3. 4.67
4. 4.25
5. 4.58

// batch mode: one pIC50 value per listed entry
1. O=C(COc1ccc(F)cc1)N/N=C/c1ccco1 [A3.060]
2. COc1cccc(/C=N/NC(=O)c2ccn(C)n2)c1O [A3.328]
3. COc1ccc(C2NCCS2)cc1Br (stereo not drawn) [A3.078]
4. CCCCCC(=O)N/N=C/c1ccco1 [A3.164]
5. O=C(NNC1=C(Cl)C(=O)C(Cl)(Cl)C1=O)c1ccccc1 [A3.070]
6. COc1ccc(/C=C(/NC(=O)c2ccccc2)C(=O)N/N=C\C=C\c2ccc(C)o2)cc1OC [A3.081]

Given back:
1. 4.87
2. 3.85
3. 4.79
4. 4.57
5. 4.82
6. 4.78

// batch mode: one pIC50 value per listed entry
1. O=C(CCc1ccccc1)N/N=C/c1ccco1 [A3.302]
2. Cc1nn(-c2ccccc2)c(C)c1-c1cc(C(=O)N/N=C/c2ccco2)[nH]n1 [A3.167]

Given back:
[4.13, 4.56]
